tested on: NCI-H23 lung; test: NCI tumour cell line growth inhibition, 48 h
Quantity Kind: TGI

Q: What value of measured TGI is listed for CC1(C)C(=O)OC(n2cc(F)c(=O)[nH]c2=O)C1=O (configuration not stated) ?
Result: > 100 µM

Q: Again, but for CC[C@@H](C)/C=C(C)/C=C/C(=O)c1c(O)c(-c2ccc(OC(=O)[C@@]34CC[C@@](C)(C(=O)O3)C4(C)C)cc2)cn(O)c1=O
Result: > 50 µM

Q: Would you kindly repeat that for O=S1SC(=S)C2C=CC=NC21 (configuration not stated) ?
Result: 43.1 µM

Q: Next molecule: CCOC(=O)C1=C(C)NC(=O)NC1c1ccc(OC)cc1OC (configuration not stated)
Result: > 100 µM

Q: Can you handle Clc1cccc(-c2nc3cccc4c3n2Cc2ncccc2-4)c1 next?
Result: > 100 µM

// below: TGI requested for another molecule
Q: TGI for Cc1cc(C)c(NS(=O)c2cccc(C(F)(F)F)c2)c(C)c1 (configuration not stated) ?
Result: > 100 µM
